- Tested on: A549 NSCLC
- PROCEDURE_SUMMARY: NCI tumour cell line growth inhibition, 48 h
Each entry below carries its recorded TGI.
Report as a plain number; the unit µM is understood.

Worked examples, 3 molecules total:
CN(C)Cc1cccc(CN(C)C)[c]1[Sn]([Br])([c]1ccccc1)[c]1ccccc1: 60.1
Cc1cccc2c1O/C(=C\c1ncc([N+](=O)[O-])n1C)C2=O: 2.26
COC(OC)(c1ccccc1)C(I)I: 43.6

Switching to the query record.
Problem: Query: TGI; subject: O=C1c2cccc3cc([N+](=O)[O-])cc(c23)C(=O)N1CCN1CCCC1
Result: 1.69

---

- Test system: A498 renal
- PROCEDURE_SUMMARY: NCI tumour cell line growth inhibition, 48 h
Each entry below carries its recorded GI50.

C#Cc1cccc(Nc2ncnc3ccc(-c4cnc(Cl)c(NS(C)(=O)=O)c4)cc23)c1: 0.0334 µM
O=C1/C(=C/c2ccccc2)CN(CCC(=O)N2C/C(=C\c3ccccc3)C(=O)/C(=C/c3ccccc3)C2)C/C1=C\c1ccccc1: 1.5 µM
N/C(=N\c1nc2ccccc2s1)NC(=O)Nc1ccccc1Cl: 0.0818 µM
O=C1/C=C/[C@@H](O)[C@@H]2C[C@@H](O)C[C@H]2/C=C/CCC[C@H](CO)O1: 1.31 µM
COc1cc(C)[nH]c(=O)c1CN1CCc2c(Cl)cc([C@H](OC)C3COC3)c(Cl)c2C1=O: > 100 µM
O=C1/C(=C/c2ccccc2Br)COc2ccc(O)c(O)c21: 1.97 µM
Oc1cccc(Cn2c(-c3cccc(O)c3O)nc3ccccc32)c1O: 17.6 µM
C=C1SC(=Nc2ccccc2Cl)N(C(=O)c2sc3ccccc3c2Cl)C1(C)C: 4.04 µM
CNC(=O)c1cncc(/C=C/c2c(C)cccc2C)c1: 8.95 µM

Switching to the query record.
Problem: Query: GI50; subject: O=S(=O)(NCCCNc1cc(-c2cn(-c3ccccc3)nc2-c2cccc(O)c2)ccn1)c1cccc2ccccc12
Result: 1.09 µM

---

- Test system: SF-539 CNS
- PROCEDURE_SUMMARY: NCI tumour cell line growth inhibition, 48 h
ENDPOINT_NAME: TGI

C=CCCC(C)N(C(=O)OC(C)(C)C)S(=O)(=O)c1ccc(C)cc1 (stereo not given): > 100 µM
CC1(C)CCC2(C(=O)O)CC[C@]3(C)C(=CCC4C5(C)CC[C@H](OC6OC(C(=O)O)C(O)C(OC7OC(CO)C(O)C(O)C7O)C6OC6OC(CO)C(O)C(O)C6O)C(C)(C)C5CCC43C)C2C1 (stereo not given in full): > 100 µM
O=C(/C=C/c1cccs1)c1cccc(C(=O)/C=C/c2cccs2)n1: 21.5 µM
O=C1CCC2=C3C4CCCCC4C(=O)C4CCCC(OC2C1)C34 (stereo not given): > 100 µM
O=C1CC(c2ccc[nH]2)=NN1c1ccccc1: > 100 µM
COC(=O)c1ccc(CCc2cc(O)c(Br)cc2O)cc1: 20.7 µM

Problem: Query: TGI; subject: O=C1CC2C(=O)C1C(C(=O)O)C2C(=O)O (stereo not given)
Result: > 100 µM

Problem: Query: TGI; subject: COC1CC2C=CC3C4OC2(/C(C)=C/C(C)C(C(C)O)OC1=O)C3C(O)C(C)C4OC(=O)c1ccc[nH]1 (stereo not given)
Result: > 100 µM

Problem: Query: TGI; subject: CSc1nncc2[nH]cnc12
Result: > 100 µM

Problem: Query: TGI; subject: Cc1[nH]c2ccccc2c1C1CC(=O)NC1=O (stereo not given)
Result: > 100 µM

---

- Test system: NCI-H226 lung
- PROCEDURE_SUMMARY: NCI tumour cell line growth inhibition, 48 h
Each entry below carries its recorded TGI.

Worked examples, 5 molecules total:
N#Cc1ccc(-c2nc3ccc(Cl)cc3[nH]2)cc1: > 100 µM
NC(=O)c1cc(Cl)ccc1NC(=O)c1ccccc1-c1ccccc1: > 100 µM
Cc1ccc(Nc2nc(=O)[nH]c(=O)[nH]2)cc1N=[N+]=[N-]: > 100 µM
N#CC(C(=O)CCC(=O)Nc1ccc(Cl)cc1)c1ccccc1Cl (stereo unspecified): > 100 µM
COc1c(B(O)O)cccc1-c1nc2c(F)cc3[nH]ncc3c2c2c1CCCC2: 22.7 µM

Switching to the query record.
Problem: Query: TGI; subject: O=C1/C(=C/c2ccccc2Br)COc2ccc(O)c(O)c21
Result: 8.19 µM

---

- System: NCI-H23 lung
- PROCEDURE_SUMMARY: NCI tumour cell line growth inhibition, 48 h; in the data active = GI50 below about 0.43 µM; inactive = the rest
Respond using exactly one of the listed classes: t for active, f for inactive

O=C1C=C(N2CC2)C(=O)C=C1N1CC1: t

Problem: Outcome? CC1OC(O[C@H]2/C=C/C=C/C=C/C=C/C=C/C=C/C=C/[C@H](C)[C@@H](O)[C@@H](C)[C@H](C)OC(=O)C[C@H](O)C[C@H](O)CC[C@@H](O)[C@H](O)C[C@H](O)C[C@]3(O)C[C@H](O)[C@@H](C(=O)O)[C@H](C2)O3)C(O)C(N)C1O (stereo partly drawn)
Result: f

Problem: Outcome? N/C(=N\c1nc2ccccc2s1)NC(=O)Nc1ccccc1Cl
Result: t

---

- Test system: RXF 393 renal
- PROCEDURE_SUMMARY: NCI tumour cell line growth inhibition, 48 h
Where a SMILES comes first, the peptide text is derived from it. The star is where a group is joined. Boc = CC(C)(C)OC(=O)*
I would appreciate it if you labelled entries yes (1) when TGI is 20 µM or higher, otherwise no (0).

Some entries whose results are on file:
CCOCC(NC(=O)C(CC(C)C)NC(=O)OC(C)(C)C)C(N)=O (stereo not drawn) (Boc-Leu-Ser(Et)-NH2; configuration not given here): yes (1)
CCC(c1ccc(OC)cc1)C(CC)c1ccc(O)c(CN2CCCC2)c1 (stereo unspecified): no (0)
CC(=O)O[C@H]1CC[C@@]2(C)C(=CC[C@@H]3[C@@H]2CC[C@]2(C)c4c(cc(C#N)c(=N)n4C(C)=O)C[C@@H]32)C1: yes (1)
CCC1CCCCN1C(=S)N/N=C(\C)c1ccccn1 (stereo unspecified): no (0)
CCC(O)(c1ccc(OC)cc1)C(c1ccc(OCc2ccccc2)cc1)c1ccc(OCc2ccccc2)cc1 (stereo unspecified): yes (1)
ClC1(c2ccccc2)c2ccc(Br)cc2-c2cc(Br)ccc21: yes (1)
CC(C)(C)OC(=O)NC(Cc1ccc(OCc2ccccc2)cn1)C(=O)N1CCSCC1 (stereo unspecified): yes (1)
O=c1[nH]c(Nc2cccc(Br)c2)nc2nc[nH]c12: yes (1)

Problem: Determine whether measured TGI meets or exceeds 20 µM for O=C1OC(C2OC(=O)c3cc(O)c(O)c(O)c3-c3c(O)c(O)c4oc(=O)c5c(c(O)c(O)c6oc(=O)c3c4c65)-c3c(cc(O)c(O)c3O)C(=O)OCC2O)C2OC(=O)c3c(c(O)c(O)c(O)c3[C@H]2O)-c2c1cc(O)c(O)c2O (stereo partly specified)
Result: yes (1)

Problem: Determine whether measured TGI meets or exceeds 20 µM for Cc1ccc(Nc2sc(C)cc2C#N)c([N+](=O)[O-])c1
Result: yes (1)

Problem: Determine whether measured TGI meets or exceeds 20 µM for CC(C)NC(=O)OCc1c(COC(=O)NC(C)C)c(-c2ccc[n+](COC(=O)C3CC3)c2)n2c1CCC2
Result: yes (1)

Problem: Determine whether measured TGI meets or exceeds 20 µM for CC1(C)CCC2(C(=O)O)CC[C@]3(C)C(=CCC4C5(C)CC[C@H](OC6OC(C(=O)O)C(O)C(OC7OC(CO)C(O)C(O)C7O)C6OC6OC(CO)C(O)C(O)C6O)C(C)(C)C5CCC43C)C2C1 (stereo partly specified)
Result: yes (1)

Problem: Determine whether measured TGI meets or exceeds 20 µM for CCOC(=O)/C=C(\N=P(c1ccccc1)(c1ccccc1)c1ccccc1)C(F)(F)C(F)(F)C(F)(F)C(F)(F)C(F)(F)F
Result: yes (1)

Problem: Determine whether measured TGI meets or exceeds 20 µM for COc1ccc(C2SCC(=O)N2NC(=O)C(C)Oc2ccccc2Cl)cc1 (stereo unspecified)
Result: yes (1)

---

Each entry below carries its recorded TGI.
- System: LOX IMVI melanoma
- PROCEDURE_SUMMARY: NCI tumour cell line growth inhibition, 48 h

Worked examples, 2 compounds total:
CCCC1C(=O)C(CC)Cc2c(OC)ccc(OC)c21 (stereo not drawn): > 100 µM
Cc1ccc(NC(=O)CC/C(CC(=O)c2ccc(Cl)cc2)=N\NC(=O)C(=O)NN)cc1C: > 100 µM

Problem: Notebook: pull reported TGI for LOX IMVI melanoma, entry O=C(c1cc2c(C(F)(F)F)onc2c2ccccc12)C(F)(F)F
Result: 18.3 µM

---

- Tested on: M19-MEL melanoma
- PROCEDURE_SUMMARY: NCI tumour cell line growth inhibition, 48 h
ENDPOINT_NAME: TGI (µM)
Report as a plain number; the unit µM is understood.

CC(=O)NC1C(OCc2ccccc2)OC(COC(=O)CCCCCNc2ccc([N+](=O)[O-])c3[nH]c4ccc(O)cc4c(=O)c23)C(O)C1OC(C)C(=O)N[C@@H](C)C(=O)N[C@H](CCC(=O)OCc1ccccc1)C(N)=O (stereo not given in full): 33.3

Switching to the query record.
Problem: Notebook: pull reported TGI for M19-MEL melanoma, entry O=C(c1cc2c(C(F)(F)F)onc2c2ccccc12)C(F)(F)F
Result: 23.4
